# System: MRSA (CCARM 3089)
# Assay type: cell-based, methicillin-resistant Staphylococcus aureus
# Protocol Conditions: broth microdilution in MHB, 37 °C, 24 h, 100% inhibition of growth
Catalogue of Minimal Inhibitory Concentration (MIC) values
Measure: Minimal Inhibitory Concentration (MIC)

{"Compound String": "CC[C@H](C)[C@H](NC(=O)[C@H](CCCCN)NC(=O)[C@H](CCCCN)NC(=O)[C@H](Cc1ccccc1)NC(=O)[C@H](CC(C)C)NC(=O)[C@H](CCCCN)NC(=O)[C@@H](N)CCCCN)C(=O)N[C@@H](CC(C)C)C(=O)N[C@@H](CCCCN)C(=O)N[C@@H](Cc1ccc(O)cc1)C(=O)N[C@@H](CC(C)C)C(N)=O", "Target Desc": "MRSA (CCARM 3089)", "Measure": "Minimal Inhibitory Concentration (MIC)", "Val": "32 µM"}
{"Compound String": "CC[C@H](C)[C@H](NC(=O)[C@H](CCCCN)NC(=O)[C@H](CCCCN)NC(=O)[C@H](Cc1ccccc1)NC(=O)[C@H](CC(C)C)NC(=O)[C@H](CCCCN)NC(=O)[C@@H](N)CCCCN)C(=O)N[C@@H](Cc1c[nH]c2ccccc12)C(=O)N[C@@H](CCCCN)C(=O)N[C@@H](Cc1ccc(O)cc1)C(=O)N[C@@H](CC(C)C)C(N)=O", "Target Desc": "MRSA (CCARM 3089)", "Measure": "Minimal Inhibitory Concentration (MIC)", "Val": "64 µM"}
{"Compound String": "CC[C@H](C)[C@H](NC(=O)[C@H](CCCCN)NC(=O)[C@H](CCCCN)NC(=O)[C@H](Cc1c[nH]c2ccccc12)NC(=O)[C@H](CC(C)C)NC(=O)[C@H](CCCCN)NC(=O)[C@@H](N)CCCCN)C(=O)N[C@@H](CC(C)C)C(=O)N[C@@H](CCCCN)C(=O)N[C@@H](Cc1ccc(O)cc1)C(=O)N[C@@H](CC(C)C)C(N)=O", "Target Desc": "MRSA (CCARM 3089)", "Measure": "Minimal Inhibitory Concentration (MIC)", "Val": "32 µM"}

---

Catalogue of Minimal Inhibitory Concentration (MIC) values
# Tested on: B. subtilis (KCTC 3068)
# Assay type: cell-based, Bacillus subtilis
# Protocol Conditions: broth microdilution in MHB, 37 °C, 24 h, 100% inhibition of growth

{"Compound String": "CC[C@H](C)[C@H](NC(=O)[C@H](CCCCN)NC(=O)[C@H](CCCCN)NC(=O)[C@H](Cc1c[nH]c2ccccc12)NC(=O)[C@H](CC(C)C)NC(=O)[C@H](CCCCN)NC(=O)[C@@H](N)CCCCN)C(=O)N[C@@H](CC(C)C)C(=O)N[C@@H](CCCCN)C(=O)N[C@@H](Cc1ccc(O)cc1)C(=O)N[C@@H](CC(C)C)C(N)=O", "Units Label": "µM", "Minimal Inhibitory Concentration (MIC)": 8}
{"Compound String": "CC[C@H](C)[C@H](NC(=O)[C@H](CCCCN)NC(=O)[C@H](CCCCN)NC(=O)[C@H](Cc1ccccc1)NC(=O)[C@H](CC(C)C)NC(=O)[C@H](CCCCN)NC(=O)[C@@H](N)CCCCN)C(=O)N[C@@H](Cc1c[nH]c2ccccc12)C(=O)N[C@@H](CCCCN)C(=O)N[C@@H](Cc1ccc(O)cc1)C(=O)N[C@@H](CC(C)C)C(N)=O", "Units Label": "µM", "Minimal Inhibitory Concentration (MIC)": 16}
{"Compound String": "CC(C)C[C@H](NC(=O)[C@H](Cc1ccc(O)cc1)NC(=O)[C@H](CCCCN)NC(=O)[C@H](CC(C)C)NC(=O)[C@H](Cc1c[nH]c2ccccc12)NC(=O)[C@H](CCCCN)NC(=O)[C@H](CCCCN)NC(=O)[C@H](Cc1ccccc1)NC(=O)[C@H](CC(C)C)NC(=O)[C@H](CCCCN)NC(=O)[C@@H](N)CCCCN)C(N)=O", "Units Label": "µM", "Minimal Inhibitory Concentration (MIC)": 8}
{"Compound String": "CC[C@H](C)[C@H](NC(=O)[C@H](CCCCN)NC(=O)[C@H](CCCCN)NC(=O)[C@H](Cc1ccccc1)NC(=O)[C@H](CC(C)C)NC(=O)[C@H](CCCCN)NC(=O)[C@@H](N)CCCCN)C(=O)N[C@@H](CC(C)C)C(=O)N[C@@H](CCCCN)C(=O)N[C@@H](Cc1ccc(O)cc1)C(=O)N[C@@H](CC(C)C)C(N)=O", "Units Label": "µM", "Minimal Inhibitory Concentration (MIC)": 8}
{"Compound String": "CC[C@H](C)[C@H](NC(=O)[C@H](CCCCN)NC(=O)[C@H](CCCCN)NC(=O)[C@H](Cc1ccccc1)NC(=O)[C@H](CC(C)C)NC(=O)[C@H](CCCCN)NC(=O)[C@@H](N)CCCCN)C(=O)N[C@@H](CC(C)C)C(=O)N[C@@H](CCCCN)C(=O)N[C@@H](Cc1c[nH]c2ccccc12)C(=O)N[C@@H](CC(C)C)C(N)=O", "Units Label": "µM", "Minimal Inhibitory Concentration (MIC)": 4}
